# tested-system: rat NaP2b (SLC34A2) (Rattus norvegicus, UniProt Q9JJ09)
# Construct: host or cells: HEK293
# Sequence (Q9JJ09 whole entry): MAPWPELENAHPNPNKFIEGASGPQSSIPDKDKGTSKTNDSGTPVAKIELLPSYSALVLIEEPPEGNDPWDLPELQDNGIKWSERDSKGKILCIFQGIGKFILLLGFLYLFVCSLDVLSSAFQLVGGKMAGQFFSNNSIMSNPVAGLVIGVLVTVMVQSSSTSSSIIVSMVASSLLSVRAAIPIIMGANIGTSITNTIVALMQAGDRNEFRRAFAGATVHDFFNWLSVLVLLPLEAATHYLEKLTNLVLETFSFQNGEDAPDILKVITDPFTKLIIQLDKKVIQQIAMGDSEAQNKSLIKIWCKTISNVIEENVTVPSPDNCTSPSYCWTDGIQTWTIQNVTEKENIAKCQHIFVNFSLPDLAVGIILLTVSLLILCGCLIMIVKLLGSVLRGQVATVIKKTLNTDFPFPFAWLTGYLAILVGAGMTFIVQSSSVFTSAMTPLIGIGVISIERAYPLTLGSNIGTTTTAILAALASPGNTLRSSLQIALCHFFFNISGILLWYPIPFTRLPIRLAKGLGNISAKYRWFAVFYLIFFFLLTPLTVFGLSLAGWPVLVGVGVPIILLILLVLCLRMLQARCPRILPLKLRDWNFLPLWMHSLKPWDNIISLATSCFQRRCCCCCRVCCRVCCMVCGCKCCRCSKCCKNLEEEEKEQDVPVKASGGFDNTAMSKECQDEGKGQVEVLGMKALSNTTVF
# protocol: NaP2b-mediated Pi transport: 33P phosphate uptake into transfected HEK293 cells
# Format: cell-based
# measurement-context: 100 uM KH2PO4, PiT-silencing agent, read-out: pIC50 range for rat Nap2b (converted)
observed-property: IC50

Some solved cases for reference:
>>> print(df.to_string())
                                   compound                             tested_system  observed_property  value_measured
0  CN(CCN1CCOCC1)C(=O)c1cccc(C(=O)Nc2ccc(N3CCCCC3)cc2C(=O)Nc2ncn(-c3cccc(C(F)(F)F)c3)n2)c1 [Example 2]  rat NaP2b (SLC34A2) (Rattus norvegicus, UniProt Q9JJ09)               IC50    1 to 7.94 µM
1  O=C(O)CCSCc1cccc(C(=O)Nc2ccc(Cl)cc2C(=O)Nc2ccn(-c3cccc(C(F)(F)F)c3)n2)c1 [Example 6]  rat NaP2b (SLC34A2) (Rattus norvegicus, UniProt Q9JJ09)               IC50    1 to 7.94 µM
2  CN(CCN1CCOCC1)C(=O)c1cccc(C(=O)Nc2ccc(N3CCCCC3)cc2C(=O)Nc2ccn(-c3cccc(C(F)(F)F)c3)n2)c1 [Example 11]  rat NaP2b (SLC34A2) (Rattus norvegicus, UniProt Q9JJ09)               IC50          < 1 µM
3  O=C(NCCOCCO)c1cccc(C(=O)Nc2ccc(N3CCCCC3)cc2C(=O)Nc2cn(-c3cccc(C(F)(F)F)c3)cn2)c1 [Example 10]  rat NaP2b (SLC34A2) (Rattus norvegicus, UniProt Q9JJ09)               IC50    1 to 7.94 µM
4  O=C(NCCOCCO)c1cccc(C(=O)Nc2ccc(N3CCCCC3)cc2C(=O)Nc2ccn(-c3cccc(C(F)(F)F)c3)n2)c1 [Example 13]  rat NaP2b (SLC34A2) (Rattus norvegicus, UniProt Q9JJ09)               IC50    1 to 7.94 µM
5  CN(CCOCCOCCOCCC(=O)O)Cc1cccc(C(=O)Nc2ccc(N3CCCCC3)cc2C(=O)Nc2ccn(-c3cccc(C(F)(F)F)c3)n2)n1 [Example 8]  rat NaP2b (SLC34A2) (Rattus norvegicus, UniProt Q9JJ09)               IC50    1 to 7.94 µM
6  CCN(CC)CCN(C)Cc1cccc(C(=O)Nc2ccc(N3CCCCC3)cc2C(=O)Nc2ccn(-c3cccc(C(F)(F)F)c3)n2)c1 [Example 12]  rat NaP2b (SLC34A2) (Rattus norvegicus, UniProt Q9JJ09)               IC50   10 to 31.6 µM
7  Cc1ccc(-n2ccc(NC(=O)c3cc(Cl)ccc3NC(=O)c3cccc(CSCCC(=O)O)c3)n2)cc1C [Example 4]  rat NaP2b (SLC34A2) (Rattus norvegicus, UniProt Q9JJ09)               IC50    1 to 7.94 µM
8  O=C(O)Cc1cccc(SCc2cccc(C(=O)Nc3ccc(N4CCCCC4)cc3C(=O)Nc3ccn(-c4cccc(C(F)(F)F)c4)n3)c2)c1 [Example 23]  rat NaP2b (SLC34A2) (Rattus norvegicus, UniProt Q9JJ09)               IC50          < 1 µM
9  CN(CCN1CCOCC1)C(=O)c1cccc(C(=O)Nc2ccc(N3CCCCC3)cc2C(=O)Nc2nc(-c3cccc(C(F)(F)F)c3)cs2)c1 [Example 3]  rat NaP2b (SLC34A2) (Rattus norvegicus, UniProt Q9JJ09)               IC50          < 1 µM

IN: Param item = O=C(O)Cc1cccc(SCc2cccc(C(=O)Nc3ccc(Cl)cc3C(=O)Nc3ccn(-c4cccc(C(F)(F)F)c4)n3)c2)c1 [Example 24] ; retrieve measured IC50.
OUT: < 1 µM

IN: Recorded IC50 for CN(CCOCCOCCOCCC(=O)O)C(=O)c1cccc(C(=O)Nc2ccc(N3CCCCC3)cc2C(=O)Nc2ccn(-c3cccc(C(F)(F)F)c3)n2)c1 [Example 15] , please?
OUT: 1 to 7.94 µM

IN: Find the recorded IC50 belonging to O=C(O)c1cccc(SCc2cccc(C(=O)Nc3ccc(N4CCCCC4)cc3C(=O)Nc3ccn(-c4cccc(C(F)(F)F)c4)n3)c2)c1 [Example 18] and report it.
OUT: 1 to 7.94 µM

Origin of measurements: patent US9289430B2
